# Assay summary: recombinant UMI read abundance after kanamycin selection (control-corrected) (log10(CPM+1)); higher = more efficient recombination; extreme values may be limits of the assay; sequences stand for … in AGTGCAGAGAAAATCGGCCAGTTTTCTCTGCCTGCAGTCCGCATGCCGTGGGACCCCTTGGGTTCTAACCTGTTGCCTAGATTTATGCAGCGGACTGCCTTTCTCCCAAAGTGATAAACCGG…AGGTTGGTTTCACT; site = the 11-nt donor;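 also: IS621 bridge recombinase in Escherichia coli cells against a fixed T5 target plasmid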
Please use condition met whenever recombinant UMI read abundance (log10) is not below 0.4, and condition not met whenever it is.

Ordered residues | Label class
CGCGGGACATGGACCGGTTTTCCCGGTAATCCGTATTTGGC (site CGCGGGACTGC) | condition met
GATTATCCATGGACCGGTTTTCCCGGTAATCCGTATTTGTT (site GATTATCCTAT) | condition not met
AGCCTTTCATGGACCGGTTTTCCCGGTAATCCGTATTTGTC (site AGCCTTTCTGA) | condition not met
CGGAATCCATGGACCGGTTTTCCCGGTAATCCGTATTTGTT (site CGGGATTCTAA) | condition not met
ACCCAGACATGGACCGGTTTTCCCGGTAATCCGTATTTGGG (site ACCAAGACTCC) | condition not met
AAACGAACATGGACCGGTTTTCCCGGTAATCCGTATTTGTC (site ATACGAACTGA) | condition met
CAGGCGTCATGGACCGGTTTTCCCGGTAATCCGTATTTGGA (site CAGGCGTCTTC) | condition met
CTTCGCACATGGACCGGTTTTCCCGGTAATCCGTATTTGAA (site CTTCGCACTTT) | condition not met
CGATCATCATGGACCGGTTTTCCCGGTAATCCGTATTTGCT (site CCATCATCTAA) | condition not met
ACTGGTGCATGGACCGGTTTTCCCGGTAATCCGTATTTGGT (site ACTCGTGCTAC) | condition met
GGCTATCCATGGACCGGTTTTCCCGGTAATCCGTATTTGAA (site GGCAATCCTTT) | condition not met
CAAGCCGCATGGACCGGTTTTCCCGGTAATCCGTATTTGCT (site CAAGCTGCTAG) | condition not met
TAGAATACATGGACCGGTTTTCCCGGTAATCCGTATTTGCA (site TAGAATACTCG) | condition not met
CTGAATGCATGGACCGGTTTTCCCGGTAATCCGTATTTGTT (site CTGAATGCTAA) | condition met
GTTGTACCATGGACCGGTTTTCCCGGTAATCCGTATTTGGT (site GTTGTGCCTAC) | condition not met
GGTCACCCATGGACCGGTTTTCCCGGTAATCCGTATTTGTT (site GGTCACCCTAA) | condition not met
CAATTGCCATGGACCGGTTTTCCCGGTAATCCGTATTTGCT (site CAATTTCCTAG) | condition not met
ATGAAGACATGGACCGGTTTTCCCGGTAATCCGTATTTGCA (site AGGAAGACTTG) | condition met
CGATCAACATGGACCGGTTTTCCCGGTAATCCGTATTTGTT (site CGATCAACTAA) | condition not met
GAAGTTTCATGGACCGGTTTTCCCGGTAATCCGTATTTGTT (site GAAGTTTCTAA) | condition met
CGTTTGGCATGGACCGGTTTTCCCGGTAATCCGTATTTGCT (site CGTTTGGCTAT) | condition not met
CCCCGCACATGGACCGGTTTTCCCGGTAATCCGTATTTGTA (site CCCCGCACTTA) | condition met
TGCTCCCCATGGACCGGTTTTCCCGGTAATCCGTATTTGTA (site TGATCCCCTTA) | condition not met
CTCGTAACATGGACCGGTTTTCCCGGTAATCCGTATTTGAC (site CTAGTATCTGT) | condition not met
GCGCGCACATGGACCGGTTTTCCCGGTAATCCGTATTTGCT (site GCGCGCACTAG) | condition met
AATCTCACATGGACCGGTTTTCCCGGTAATCCGTATTTGGA (site AATCTCACTTC) | condition not met
AAGCACCCATGGACCGGTTTTCCCGGTAATCCGTATTTGGG (site AAGCACACTCC) | condition not met
GCTGCTGCATGGACCGGTTTTCCCGGTAATCCGTATTTGCC (site GCTGCTGCTGG) | condition met
TTATGAGCATGGACCGGTTTTCCCGGTAATCCGTATTTGGG (site TGATGAGCTCC) | condition not met
ATCCCTACATGGACCGGTTTTCCCGGTAATCCGTATTTGAG (site CTCCCTACTCT) | condition not met
CTTCTCTCATGGACCGGTTTTCCCGGTAATCCGTATTTGTT (site CTTCTCTCTAA) | condition met
TTTCTCACATGGACCGGTTTTCCCGGTAATCCGTATTTGCC (site TTTCTCACTGG) | condition met
GGAGTGGCATGGACCGGTTTTCCCGGTAATCCGTATTTGTT (site GGAGTGGCTAG) | condition met
TTTAACTCATGGACCGGTTTTCCCGGTAATCCGTATTTGAA (site TTTAACTCTTT) | condition not met
GCGAAATCATGGACCGGTTTTCCCGGTAATCCGTATTTGCT (site GCGAAAACTAG) | condition not met
